# Assay Details: Maximum solubility in DMSO (stock solution)
# Format: physicochemical
# Assay Conditions: 100% DMSO, organic solvent or mixture, thermodynamic from solid
Measurement Kind: solubility

Compound Structure	Measurement Kind	Measured
O=C(CBr)Nc1ccccc1B(O)O	solubility	1000 µg/mL
